meta.source: PubChem BioAssay (NCI)

Quick reference for TGI among some compounds
System: DU-145 prostate
Assay: NCI tumour cell line growth inhibition, 48 h

Name the recorded TGI for Cc1[nH]n(-c2ncc(C(=O)O)c(=O)[nH]2)c(=O)c1CCO .
> 100 µM

Query O=C1C(Cl)C2(CC(/C=C/c3cccs3)=NN2c2cccc(S(=O)(=O)O)c2)N1c1nc2ccccc2s1 (stereo unspecified) next
> 100 µM

Query COC(=O)c1cnc(Cl)c([N+](=O)[O-])c1 next
21.3 µM

Query COc1cc2c3c(n(CCCNC4=NCCS4)c(=O)c2cc1OC)-c1cc2c(cc1C3=O)OCO2 next
1.31 µM

----------
System: ACHN renal
Experiment: NCI tumour cell line growth inhibition, 48 h
measurement.kind: TGI

Solved entries (count: 6):
{"molecule": "COC[C@@H]1[C@H]2OC(C)(C)O[C@H]2C(=O)N1C(=O)c1ccc(OC)cc1", "measurement.kind": "TGI", "result": "> 100 µM"}
{"molecule": "C=CCCCCNC(=O)C[C@@H]1C2=C(CC[C@H]1O[Si](C)(C)C(C)(C)C)N1C(=O)CCC/C=C\\C1C2 (stereo partly specified)", "measurement.kind": "TGI", "result": "28.7 µM"}
{"molecule": "CCC(C)NC(=S)N/N=C(\\C)c1nc2ncccc2[nH]1 (stereo unspecified)", "measurement.kind": "TGI", "result": "> 100 µM"}
{"molecule": "CC(CCOc1ccc2ccc(=O)oc2c1)C1=CC(=O)C(C)(C)O1 (stereo unspecified)", "measurement.kind": "TGI", "result": "12.4 µM"}
{"molecule": "O=C(NC(=S)Nc1ccc2c(c1)Sc1ccccc1O2)c1ccccc1", "measurement.kind": "TGI", "result": "> 100 µM"}
{"molecule": "CC(C)(C)OC(=O)NC(CSCc1ccc(C(=O)c2ccccc2)cc1)C(=O)O (stereo unspecified)", "measurement.kind": "TGI", "result": "> 100 µM"}

Name the recorded TGI for C=C1c2nc3ccccc3n2C=C(c2ccc(C)cc2)N1c1ccccc1 .
> 100 µM

Query CCN=c1nc2sc3c(c2c(NC(=S)NCC)s1)CCN(N1CCc2c(sc4nc(=NCC)sc(NC(=S)NCC)c24)C1)C3 next
> 100 µM

Query COC(=O)/C=C\[C@H]1[C@H](C)N1S(=O)(=O)c1ccc(C)cc1 (stereo partly specified) next
> 100 µM
